# testedTarget: MMP-2 (Homo sapiens, UniProt P08253)
# Sequence (P08253 110-660): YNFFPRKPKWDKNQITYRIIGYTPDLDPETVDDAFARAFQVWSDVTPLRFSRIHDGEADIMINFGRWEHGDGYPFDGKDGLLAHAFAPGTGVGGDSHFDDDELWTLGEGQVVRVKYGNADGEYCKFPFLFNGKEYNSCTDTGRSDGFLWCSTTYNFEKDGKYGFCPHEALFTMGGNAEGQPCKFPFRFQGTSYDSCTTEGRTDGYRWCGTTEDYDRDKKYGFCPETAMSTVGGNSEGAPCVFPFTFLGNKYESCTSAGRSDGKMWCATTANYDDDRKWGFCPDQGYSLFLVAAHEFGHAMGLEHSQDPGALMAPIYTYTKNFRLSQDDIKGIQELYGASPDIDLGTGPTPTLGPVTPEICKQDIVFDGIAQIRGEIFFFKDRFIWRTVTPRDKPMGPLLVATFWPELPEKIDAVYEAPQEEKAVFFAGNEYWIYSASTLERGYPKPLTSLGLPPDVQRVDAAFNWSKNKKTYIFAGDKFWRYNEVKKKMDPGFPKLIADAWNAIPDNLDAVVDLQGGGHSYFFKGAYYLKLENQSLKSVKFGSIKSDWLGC
readoutLabel: pIC50
Entry type: numeric. Quantity: pIC50, the -log10 of concentration in molar units.

Summary for this compound, O=C(C[C@H](CCn1nnc2ccccc2c1=O)C(=O)O)c1noc2cc(OCC3CCOCC3)ccc12 (single isomer, unassigned; enantiomer 2) : pIC50 is 6.57

Lab book: pIC50 of CCCOc1ccc2cc(C(=O)CC(CCn3nnc4ccccc4c3=O)C(=O)O)oc2c1 (racemic) noted as 5.00

Recorded result, O=C(CC(CCn1nnc2ccc(C(F)(F)F)cc2c1=O)C(=O)O)c1noc2cc(OCC3CCOCC3)ccc12 (racemic) , pIC50: 5.35

pIC50 reported for this compound CCCCCCOc1ccc2c(C(=O)CC(CCn3nnc4ccccc4c3=O)C(=O)O)coc2c1 (single isomer, unassigned; (+)) : 6.85

compound CCCCCCCOc1ccc2c(C(=O)CC(CCn3nnc4ccccc4c3=O)C(=O)O)coc2c1 (racemic) , pIC50 observed: 6.18

pIC50 reported for this compound O=C(CC(CCn1nnc2ccccc2c1=O)C(=O)O)c1coc2cc(OCCC3CCOCC3)ccc12 (racemic) : 7.70

Entry under test: O=C(CC(CCn1nnc2ccc(C(F)(F)F)cc2c1=O)C(=O)O)c1noc2cc(OCc3ccccc3)ccc12 (racemic) . Its pIC50 was 5.25
